Values compiled from ChEMBL document CHEMBL4699456.

# test-name: Cmax in BALB/c mouse at 10 mg/kg, po
# Type: ADME, organism-based
# Design: route oral, dose 10 mg/kg
# experimental-setup: in vivo
Here, each record is paired with measured Cmax data.
Your answer should be a plain number; it is taken to be in µM.

>>> endpoint_result("O=C(O)[C@H]1CC[C@H](C(=O)N2CC[C@](c3ccc(C(OCC4CCCCC4)(C(F)(F)F)C(F)(F)F)cc3)(S(=O)(=O)c3ccc(F)cc3)C2)CC1")
4.9

stdin: GET /values?readout=Cmax&item= `O=C(O)[C@H]1CC[C@H](C(=O)N2CC[C@](c3ccc(C(OCc4c(F)cccc4F)(C(F)(F)F)C(F)(F)F)cc3)(S(=O)(=O)c3ccc(F)cc3)C2)CC1`
stdout: 2.1

* * *

# test-name: Oral bioavailability in BALB/c mouse at 10 mg/kg
# Format: ADME, organism-based
# experimental-setup: in vivo
experimental-readout: bioavailability (%)
The response must be a number in % with no trailing unit.

>>> endpoint_result("O=C(O)[C@H]1CC[C@H](C(=O)N2CC[C@](c3ccc(C(OCc4c(F)cccc4F)(C(F)(F)F)C(F)(F)F)cc3)(S(=O)(=O)c3ccc(F)cc3)C2)CC1")
56

Now take the following compound into account.
stdin: Sample `O=C(O)[C@H]1CC[C@H](C(=O)N2CC[C@](c3ccc(C(OCC4CCCCC4)(C(F)(F)F)C(F)(F)F)cc3)(S(=O)(=O)c3ccc(F)cc3)C2)CC1` — what was its bioavailability?
stdout: 101
